Each entry below lists one item and its recorded HEMOGLOBIN value.
Species: Rattus norvegicus
Experiment: DrugMatrix - Regimen: Daily Repeat
Format: toxicity, organism-based, Sprague-Dawley
Parameters: regimen Daily Repeat, gender Male, age 6-8 weeks
Conditions: in vivo, po, 0 mg/kg, 120 h, tissue Blood, route oral GAVAGE, dose level Control, time 5 day, […]
Unit G/DL implied. Number only.

CN(C)c1nc(N(C)C)nc(N(C)C)n1 ... 13.5
OC(Cn1cncn1)(Cn1cncn1)c1ccc(F)cc1F ... 13.2
O=c1oc2ccccc2c(O)c1Cc1c(O)c2ccccc2oc1=O ... 13.85
Cc1oncc1C(=O)Nc1ccc(C(F)(F)F)cc1 [LEFLUNOMIDE] ... 12.93

Ask: Give its HEMOGLOBIN value. Item: Cc1noc(NS(=O)(=O)c2ccc(N)cc2)c1C
Result: 14.18
